Recorded selectivity ratio for the following compounds
assay: Selectivity index, ratio of IC50 for human L02 cells to IC50 for human HepG2 cells; type: toxicity; settings: L02 cells and HepG2 cells, read-out: Ratio IC50
Reply briefly: the number, and no unit.

Solved entries (count: 2):
* C[C@H]1CCC/C=C/[C@@H]2C[C@H](OC(=O)CCC(=O)OCCCOc3no[n+]([O-])c3S(=O)(=O)c3ccccc3)C[C@H]2[C@H](O)/C=C/C(=O)O1 | 6
* C[C@H]1CCC/C=C/[C@@H]2C[C@H](OC(=O)c3ccccc3C(=O)OCCCOc3no[n+]([O-])c3S(=O)(=O)c3ccccc3)C[C@H]2[C@H](O)/C=C/C(=O)O1 | 9

Query :: Requested read-out: selectivity ratio. Entry: `C[C@H]1CCC/C=C/[C@@H]2C[C@H](OC(=O)CCCC(=O)OCCCOc3no[n+]([O-])c3S(=O)(=O)c3ccccc3)C[C@H]2[C@H](O)/C=C/C(=O)O1`
Result :: 9

Query :: Fill blank: measured selectivity ratio of the compound `C[C@H]1CCC/C=C/[C@@H]2C[C@H](OC(=O)c3ccccc3C(=O)OCCCOc3no[n+]([O-])c3S(=O)(=O)c3ccccc3)C[C@H]2[C@H](OC(=O)c2ccccc2C(=O)OCCCOc2no[n+]([O-])c2S(=O)(=O)c2ccccc2)/C=C/C(=O)O1` is ____.
Result :: 2

Query :: Quick one: selectivity ratio for `C[C@H]1CCC/C=C/[C@@H]2C[C@H](O)C[C@H]2[C@H](OC(=O)c2ccccc2C(=O)OCCOc2no[n+]([O-])c2S(=O)(=O)c2ccccc2)/C=C/C(=O)O1` ?
Result :: 7

Hey, just so you know, these numbers are from ChEMBL document CHEMBL4138082.
